Data provenance is ChEMBL document CHEMBL4725315.

- targetOrSystem: Ribosomal protein S6 kinase alpha-6 (Homo sapiens)
- Sequence (Q9UK32 whole entry): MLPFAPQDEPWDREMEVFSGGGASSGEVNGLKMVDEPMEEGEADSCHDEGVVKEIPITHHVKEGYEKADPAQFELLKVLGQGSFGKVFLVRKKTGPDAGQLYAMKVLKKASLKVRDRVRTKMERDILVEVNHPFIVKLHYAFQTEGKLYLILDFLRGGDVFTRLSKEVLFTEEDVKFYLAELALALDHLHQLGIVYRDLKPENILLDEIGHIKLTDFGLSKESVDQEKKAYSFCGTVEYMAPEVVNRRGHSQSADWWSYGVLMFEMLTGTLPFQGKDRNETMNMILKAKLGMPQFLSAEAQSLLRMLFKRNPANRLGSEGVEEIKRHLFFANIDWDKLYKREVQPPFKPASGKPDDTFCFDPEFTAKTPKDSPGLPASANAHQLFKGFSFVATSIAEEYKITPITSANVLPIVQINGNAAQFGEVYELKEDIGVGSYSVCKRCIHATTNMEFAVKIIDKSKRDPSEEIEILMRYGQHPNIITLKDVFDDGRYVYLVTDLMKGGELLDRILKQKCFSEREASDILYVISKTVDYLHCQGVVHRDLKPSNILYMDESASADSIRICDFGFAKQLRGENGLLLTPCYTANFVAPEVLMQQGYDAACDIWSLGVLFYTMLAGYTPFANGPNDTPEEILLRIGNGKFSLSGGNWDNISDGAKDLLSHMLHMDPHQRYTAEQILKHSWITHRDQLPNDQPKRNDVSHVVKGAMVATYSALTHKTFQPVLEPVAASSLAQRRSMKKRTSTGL
- experimentDescription: Inhibition of recombinant human full-length GST-tagged RSK4 expressed in baculovirus expression system
pIC50: −log10 of the molar value.

smiles: CC(C)n1cnnc1-c1cccc(NC(=O)[C@H]2CN(c3ccc(C4CC4)nc3)CCO2)n1
pIC50: ≥ 6.30

---

- experimentDescription: Metabolic stability in human hepatocytes assessed as hepatic extraction ratio
- Type: ADME, cell-based, Hepatocyte
- conditionsUsed: read-out: ERH

smiles: CC(C)n1cnnc1-c1cccc(NC(=O)[C@H]2CN(c3ccc(C4CC4)nc3)CCO2)n1
hepatic extraction ratio: 0.32

---

// reported pIC50 for each item listed
- targetOrSystem: UniProtKB P24941
pIC50: −log10 of the molar value.
propertyName: pIC50

compound: CC(C)n1cnnc1-c1cccc(NC(=O)C2CCCCO2)n1 (configuration not stated)
recordedValue: 5.50

compound: CC(C)n1cnnc1-c1cccc(N2Cc3ccccc3C2=O)n1
recordedValue: 7.20
